# target.or.test.system: NO synthase (Rattus norvegicus, UniProt P29476)
# Construct: the supernatant was then removed by decantation and frozen in portions at −80° C; from tissue; host or cells: rat cerebellum, 20,000 g supernatant of homogenate
# experimental.protocol: HTS-NOS assay (NOS assay): conversion of radioactive arginine, cation-exchanger filter plate
# Assay type: biochemical
# experimental.parameters: read-out: HTS-NOS assay: % inhibition (10 μM)
// reported inhibition at 10 µM per item

>  <smiles.record>
CCCCN(C(C)=O)c1c(-c2cccc(OC)c2OC)nc2cc(C)ccn12

>  <unit.symbol>
%

>  <inhibition at 10 µM>
62

$$$$
>  <smiles.record>
CC(=O)N(c1c(C)cccc1C)c1c(-c2ccccc2F)nc2cc(C)ccn12

>  <unit.symbol>
%

>  <inhibition at 10 µM>
62

$$$$
>  <smiles.record>
CCc1ccn2c(Nc3ccc(F)c(Cl)c3)c(-c3cc4ccccc4o3)nc2c1

>  <unit.symbol>
%

>  <inhibition at 10 µM>
52

$$$$
>  <smiles.record>
CCc1ccn2c(NCc3ccccc3OC)c(-c3ccc(C)o3)nc2c1

>  <unit.symbol>
%

>  <inhibition at 10 µM>
32

$$$$
>  <smiles.record>
CC(=O)N(c1c(-c2ccncc2)nc2cc(C)ccn12)C(C)(C)CC(C)(C)C

>  <unit.symbol>
%

>  <inhibition at 10 µM>
61

$$$$
>  <smiles.record>
CC(=O)N(c1c(-c2ccc(C3OCCO3)o2)nc2cc(C)ccn12)C(C)(C)C

>  <unit.symbol>
%

>  <inhibition at 10 µM>
56

$$$$
>  <smiles.record>
COc1cc(-c2nc3ncccn3c2N(C(C)=O)C2CCCCC2)ccc1OC(C)=O

>  <unit.symbol>
%

>  <inhibition at 10 µM>
52

$$$$
>  <smiles.record>
CC(=O)N(c1c(-c2cccs2)nc2cc(C)ccn12)C1CCCCC1

>  <unit.symbol>
%

>  <inhibition at 10 µM>
65

$$$$
>  <smiles.record>
COc1ccccc1-c1nc2cc(C)ccn2c1Nc1c(C)cccc1C

>  <unit.symbol>
%

>  <inhibition at 10 µM>
53

$$$$

###

// reported inhibition at 10 µM per item
# target.or.test.system: NO synthase (Rattus norvegicus, UniProt P29476)
# Construct: the supernatant was then removed by decantation and frozen in portions at −80° C; from tissue; host or cells: rat cerebellum, 20,000 g supernatant of homogenate
# experimental.protocol: HTS-NOS assay (NOS assay): conversion of radioactive arginine, cation-exchanger filter plate
# Type: biochemical
# experimental.parameters: read-out: HTS-NOS assay: % inhibition (10 μM)

>  <smiles.record>
CCCCNc1c(C2CCCCC2)nc2cc(C)ccn12

>  <target.or.test.system>
NO synthase (Rattus norvegicus, UniProt P29476)

>  <unit.symbol>
%

>  <inhibition at 10 µM>
56

$$$$
>  <smiles.record>
CC(=O)N(c1c(-c2ccc(F)cc2Cl)nc2ccccn12)C(C)(C)C

>  <target.or.test.system>
NO synthase (Rattus norvegicus, UniProt P29476)

>  <unit.symbol>
%

>  <inhibition at 10 µM>
53

$$$$
>  <smiles.record>
COC(=O)CN(C(C)=O)c1c(C)nc2cc(C)ccn12

>  <target.or.test.system>
NO synthase (Rattus norvegicus, UniProt P29476)

>  <unit.symbol>
%

>  <inhibition at 10 µM>
68

$$$$
>  <smiles.record>
COc1ccccc1-c1nc2c(C)cccn2c1NC1CCCCC1

>  <target.or.test.system>
NO synthase (Rattus norvegicus, UniProt P29476)

>  <unit.symbol>
%

>  <inhibition at 10 µM>
62

$$$$
>  <smiles.record>
Cc1ccn2c(NC(C)(C)CC(C)(C)C)c(-c3ccc(-c4cccc(Cl)c4)o3)nc2c1

>  <target.or.test.system>
NO synthase (Rattus norvegicus, UniProt P29476)

>  <unit.symbol>
%

>  <inhibition at 10 µM>
62

$$$$
>  <smiles.record>
CCCCN(C(C)=O)c1c(-c2cccc(OC)c2OC)nc2cc(C)cc(C)n12

>  <target.or.test.system>
NO synthase (Rattus norvegicus, UniProt P29476)

>  <unit.symbol>
%

>  <inhibition at 10 µM>
63

$$$$
>  <smiles.record>
CC(=O)N(c1c(-c2sccc2Br)nc2ccc(C)cn12)C1CCCCC1

>  <target.or.test.system>
NO synthase (Rattus norvegicus, UniProt P29476)

>  <unit.symbol>
%

>  <inhibition at 10 µM>
53

$$$$
>  <smiles.record>
Cc1ccn2c(Nc3c(C)cccc3C)c(-c3ccccc3F)nc2c1

>  <target.or.test.system>
NO synthase (Rattus norvegicus, UniProt P29476)

>  <unit.symbol>
%

>  <inhibition at 10 µM>
71

$$$$
>  <smiles.record>
CCCCNc1c(-c2ccccc2OC)nc2cc(C)ccn12

>  <target.or.test.system>
NO synthase (Rattus norvegicus, UniProt P29476)

>  <unit.symbol>
%

>  <inhibition at 10 µM>
52

$$$$
>  <smiles.record>
Cc1cc(C)n2c(NC(C)(C)C)c(C3CCCCC3)nc2c1

>  <target.or.test.system>
NO synthase (Rattus norvegicus, UniProt P29476)

>  <unit.symbol>
%

>  <inhibition at 10 µM>
68

$$$$
>  <smiles.record>
CC(=O)N(c1c(-c2ccc(Cl)cc2Cl)nc2ncccn12)C1CCCCC1

>  <target.or.test.system>
NO synthase (Rattus norvegicus, UniProt P29476)

>  <unit.symbol>
%

>  <inhibition at 10 µM>
59

$$$$
>  <smiles.record>
CC(=O)N(c1c(-c2ccco2)nc2cc(C)cc(C)n12)C(C)(C)CC(C)(C)C

>  <target.or.test.system>
NO synthase (Rattus norvegicus, UniProt P29476)

>  <unit.symbol>
%

>  <inhibition at 10 µM>
68

$$$$
>  <smiles.record>
Cc1ccn2c(NC(C)(C)C)c(-c3cccnc3)nc2c1

>  <target.or.test.system>
NO synthase (Rattus norvegicus, UniProt P29476)

>  <unit.symbol>
%

>  <inhibition at 10 µM>
63

$$$$
>  <smiles.record>
CC(=O)N(c1c(-c2cccc(Cl)c2Cl)nc2cc(C)cc(C)n12)C(C)(C)CC(C)(C)C

>  <target.or.test.system>
NO synthase (Rattus norvegicus, UniProt P29476)

>  <unit.symbol>
%

>  <inhibition at 10 µM>
55

$$$$
>  <smiles.record>
Cc1cc(C)n2c(Nc3c(C)cccc3C)c(-c3ccccc3C)nc2c1

>  <target.or.test.system>
NO synthase (Rattus norvegicus, UniProt P29476)

>  <unit.symbol>
%

>  <inhibition at 10 µM>
59

$$$$
>  <smiles.record>
CCc1ccn2c(NCc3ccccc3OC)c(-c3ccc([N+](=O)[O-])o3)nc2c1

>  <target.or.test.system>
NO synthase (Rattus norvegicus, UniProt P29476)

>  <unit.symbol>
%

>  <inhibition at 10 µM>
32

$$$$
>  <smiles.record>
Cc1cc(C)n2c(NC(C)(C)C)c(-c3cccc(O)c3)nc2c1

>  <target.or.test.system>
NO synthase (Rattus norvegicus, UniProt P29476)

>  <unit.symbol>
%

>  <inhibition at 10 µM>
64

$$$$
>  <smiles.record>
CCc1ccn2c(Nc3ccc(F)c(Cl)c3)c(-c3cc(C)c(C)o3)nc2c1

>  <target.or.test.system>
NO synthase (Rattus norvegicus, UniProt P29476)

>  <unit.symbol>
%

>  <inhibition at 10 µM>
49

$$$$
>  <smiles.record>
Cc1cc(C)n2c(NC3CCCCC3)c(-c3ccc(C(=O)O)o3)nc2c1

>  <target.or.test.system>
NO synthase (Rattus norvegicus, UniProt P29476)

>  <unit.symbol>
%

>  <inhibition at 10 µM>
54

$$$$
